# EXPERIMENT_NOTES: Trypanosoma cruzi growth suppression in host cells – NIH3T3 host cells, beta-gal luminescence, confirmation (AID 2044);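 also: intracellular parasites grown in NIH/3T3 mouse fibroblasts as host cells; luminescent beta-galactosidase reporter signal from transgenic T. cruzi replicating inside host cells; inhibitors lower the luminescence signal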
# Type: functional, cell-based
Calls of active or inactive are those of the source. Rule as the data show it: actives have a measured EC50 and inactives only a lower limit.
Reported EC50 values follow for various molecules

Below are worked cases with known answers.
In [3]: df
Out[3]:
                                smiles_text   reported_result
0             COc1cccc(Nc2nc(N)nc(CCl)n2)c1  1700 nM (active)
1  Cc1ccc2sc(N(CCCN(C)C)C(=O)c3ccc(S(=O)(=O)N(C)C4CCCCC4)cc3)nc2c1C   148 nM (active)

query: Look up EC50: `CC(C)[C@H](NC(=O)c1ccccc1Cl)C(=O)Nc1nc(-c2ccccn2)cs1`
result: 2230 nM (active)

query: How about `CCOCCCNCc1ccc(OCCC(C)C)c(OC)c1` ?
result: 170 nM (active)
